- tested_on: sPLA2hGX (Homo sapiens, UniProt O15496)
- Sequence (O15496 43-165): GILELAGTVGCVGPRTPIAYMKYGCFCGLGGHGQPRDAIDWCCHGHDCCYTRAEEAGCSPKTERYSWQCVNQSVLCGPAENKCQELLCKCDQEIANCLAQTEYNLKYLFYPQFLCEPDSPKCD
- test_protocol: Inhibition of sPLA2hGX enzymatic activity (method of Rouault et al., 2006)
- Type: biochemical
- details: 3-300 µM tested; Figure 2B
readout_type: IC50

compound="CC(C)N1CCN(c2ccc(OCC3COC(Cn4cncn4)(c4ccc(Cl)cc4Cl)O3)cc2)CC1 (stereo not shown)" readout_type=IC50 test_value="~150 µM"

---

Protein target, amino acids: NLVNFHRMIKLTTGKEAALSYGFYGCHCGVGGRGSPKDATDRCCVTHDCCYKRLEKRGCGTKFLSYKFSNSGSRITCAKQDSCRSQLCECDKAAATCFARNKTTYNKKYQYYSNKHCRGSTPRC
readout_type: IC50

compound="CC(C)N1CCN(c2ccc(OCC3COC(Cn4cncn4)(c4ccc(Cl)cc4Cl)O3)cc2)CC1 (stereo not shown)" test_value="> 300 µM"

---

- tested_on: binding between mPLA2R1 receptor and sPLA2hGIB (Homo sapiens)
pIC50: −log10 of the molar value.
readout_type: pIC50

compound="CC(C)N1CCN(c2ccc(OCC3COC(Cn4cncn4)(c4ccc(Cl)cc4Cl)O3)cc2)CC1 (stereo not shown)" readout_type=pIC50 test_value=~4.00

---

- tested_on: sPLA2hGIB (Homo sapiens, UniProt P04054)
- Sequence (P04054 23-148): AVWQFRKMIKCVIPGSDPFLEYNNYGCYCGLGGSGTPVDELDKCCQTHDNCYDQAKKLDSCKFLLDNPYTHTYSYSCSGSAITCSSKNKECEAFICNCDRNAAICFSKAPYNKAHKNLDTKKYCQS
pIC50: −log10 of the molar value.
readout_type: pIC50

molecule="CC(C)N1CCN(c2ccc(OCC3COC(Cn4cncn4)(c4ccc(Cl)cc4Cl)O3)cc2)CC1 (stereo not shown)" test_value="3.82 to 4.00"
